src = PubChem BioAssay

Parameter z-score: see the listing below.
assay info: plasmodial surface anion channel blockers, osmotic lysis – cell-based, P. falciparum Indochina, OD700, 2 h, primary screen (AID 1155);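 also: lysis reports solute entry through the parasite surface anion channel PSAC; channel blockers reduce lysis of infected cells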
protocol conditions: P. falciparum Indochina infected erythrocytes, higher = more signal, called active from +8 up or from −8 down
Reply briefly: the number, and no unit.

// below: answered molecules
COCCOC(=O)N1C(=O)[C@@]2(c3cc(C#Cc4ccc(OC)cc4)ccc31)[C@H](C(N)=O)[C@H]1C(=O)O[C@H](c3ccccc3)[C@H](c3ccccc3)N1[C@@H]2c1ccc(OCCO)cc1 = 5.69
COC(=O)C(CC#Cc1ccc2c(c1)[C@]1(C(=O)N2)[C@H](c2ccc(OCCO)cc2)N2[C@H](c3ccccc3)[C@H](c3ccccc3)OC(=O)[C@H]2[C@@H]1C(=O)O)C(=O)OC = 0.441
COc1cc(C(O)C2C=CC3C(=O)NC(=O)C3N2Nc2ccc(Cl)cc2Cl)cc(OC)c1OC (centres undefined) = 1.49
C[N+](C)(C)CCCC[C@@H]1NC(=O)[C@@H]2C[C@H](C(=O)NCCCCCNC(=O)CS)[C@H](c3cccc(OCCO)c3)N2C1=O = 0.813
C=CCN1C(=O)[C@@]2(O[C@@H](CCO)[C@H]([Si](C)(C)c3ccc(OC)cc3)[C@H]2C)c2cc(NC(=O)[C@H](C)O)ccc21 = 6.92
CC(C)C(CO)N1C(=O)[C@@H]2[C@H]3C(=O)OCC=C[C@H]3OC23C=CCN(CCN2CCOCC2)C(=O)[C@@H]13 (some centres undefined) = -0.136
CC1C=C(CCCO)C=C(C(=O)OCCS(C)(=O)=O)C(C(=O)OCCS(C)(=O)=O)=CN1Cc1cccc(OC(F)(F)F)c1 (centres undefined) = 0.45
COc1ccc(CCNC(=O)[C@@H]2c3ccccc3C(=O)N(Cc3ccccc3C(F)(F)F)[C@H]2c2ccc(CO)cc2)cc1 = 0.252

Query string: Could you share which z-score value was measured for Cc1cc(C)c(C(O)C2C=CC3C(=O)N(c4ccccc4)C(=O)C3N2Nc2ccccc2)c(C)c1 (centres undefined) ?
Result string: 1.23

Query string: // query z-score value for entry Cc1ccc(N2C(=O)c3ccccc3[C@](C)(C(=O)NC(C)C)[C@@H]2c2ccc(CO)cc2)nc1
Result string: 0.414

Query string: Bench note: what z-score did COC(=O)[C@@]1(Cc2ccccc2)[C@H]2c3cc(C(=O)N4CCCC4)n(Cc4ccccc4)c3C[C@H]2CN1C(=O)c1ccccc1 show?
Result string: 0.945

Query string: Entry C=CCN1C(=O)[C@@]2(O[C@@H](CCn3cc([C@H](O)c4ccccc4)nn3)[C@H]([Si](C)(C)c3ccc(OC)cc3)[C@H]2C)c2cc(NC(=O)c3ccc(OC)cc3)ccc21 : reported z-score = ?
Result string: 1.77

Query string: Return reported z-score; argument: CC(C)C[C@@H]1NC(=O)[C@@H]2C[C@H](C(=O)NCc3ccc(F)cc3)[C@H](c3ccc(O)cc3)N2C1=O
Result string: 0.328

Query string: May I ask what z-score has been recorded for C=C(/C(=C/C[C@@H](OC(=O)c1ccncc1)c1cccc(OCCO)c1)c1cc(C(=O)OC)ccc1OC)C(C)C ?
Result string: 3.01

---

Entries and their z-score
assay info: JC-1 mitochondrial signal, unstimulated adipocytes – cell-based, JC-1 fluorescence, 3T3-L1 adipocytes, 24 h, 100 nL compound, profiling panel (AID 1168); also: test concentration not given here
protocol conditions: JC-1 mitochondrial fluorescence, higher = more signal, called active from +8 up or from −8 down
Write the number on its own, no unit after it.

O=C(O)[C@@]1(Cc2ccccc2)COC(c2ccc(OCCCO)cc2)=N1 = -0.0997
COc1cccc(C[C@H]2C[C@@H](CO[Si](C(C)C)(C(C)C)C(C)C)N3C(=O)[C@]4(C(C)=O)O[C@]23[C@H]2C(=O)N(C)C(=O)[C@H]24)c1 = 0.207
O=C1c2ccccc2C(=O)C2CC([C@H]3Oc4ccccc4S(=O)(=O)N4CCC[C@@H]34)=CCC12 (some centres undefined) = 0.0775
O=C1O[C@H](c2ccccc2)[C@H](c2ccccc2)N2[C@H]1[C@@H](C(=O)N1CCCCCCC1)[C@]1(C(=O)Nc3ccccc31)[C@H]2c1ccc(O)cc1 = 0.123
C#CCOC(=O)N[C@H](C=CCCCC)c1ccccc1 = -0.62
CN1C(=O)C2C=CC(C(O)c3ccc(F)cc3)N(N3CCCCC3)C2C1=O (centres undefined) = -0.487
CC(C)C[C@@H]1NC(=O)[C@@]23C(=O)N[C@@H](Cc4ccccc4)C2[C@H](C)[C@@]2(C)O[C@H]2C3/C=C/C/C=C\CNC(=O)[C@@H]2CCCN2C1=O (some centres undefined) = 0.568
CC(C)c1ccc(NN2C(C(O)c3cccs3)C=CC3C(=O)N(c4ccccc4)C(=O)C32)cc1 (centres undefined) = -1.73
CCC[C@@H]1C[C@@]1(CCC)[C@@H](NC(=O)c1cccs1)c1ccc(Cl)cc1 = 0.028
CN(C)C(=O)[C@@]1(CCS(=O)(=O)c2ccccc2)N=C(c2ccc(OCCCO)cc2)O[C@H]1c1ccccc1CN=[N+]=[N-] = -0.264

Query string: What z-score value was documented for this compound, CCOC(=O)C[C@H]1[C@H](OC(=O)c2ccc(C(=O)c3ccccc3)cc2)[C@@H](NC(=O)C2CCCCC2)c2cc(OCCCO)ccc2N1C(=O)Cc1ccc(OC)cc1 ?
Result string: -0.76

Query string: Any idea what z-score was measured for O=C1C2C=CC(C(O)c3ccc(Br)cc3)N(Nc3ccccc3)C2C(=O)N1c1ccccc1 (centres undefined) ?
Result string: -0.711

Query string: Could you share which z-score value was measured for COCCCNC(=O)[C@]1(Cc2ccccc2CN=[N+]=[N-])N=C(c2ccc(OCCCO)cc2)O[C@@H]1c1ccccc1CN=[N+]=[N-] ?
Result string: -0.907

---

Test system: PRMT1 (protein arginine N-methyltransferase 1)
assay info: small molecules binding arginine methyltransferase PRMT1 – biochemical, small-molecule microarray, 635 nm fluorescence, primary screen (AID 1088);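 also: binding of Prmt1 protein to compounds spotted on small-molecule microarray slides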
protocol conditions: higher = more signal
reported metric: composite z-score
Answer with a number only.

Completed entries (count: 2):
C[C@@H]1ON(c2ccccc2)[C@H](c2ccccc2)[C@H]1C(=O)N1C(=O)OC[C@H]1Cc1ccccc1 = 1.3
CC(C)(C)N1CC=CC23O[C@@H]4C=CCCOC(=O)C4[C@H]2C(=O)N(CCCO)[C@@H]3C1=O (some centres undefined) = -1.49

Query string: Give its composite z-score value. Item: O=C(Nc1cc(Br)ccc1C(=O)NCc1cccc(O)c1)c1ccccc1
Result string: 1.45

Query string: Could you tell me which composite z-score is on file for [N-]=[N+]=Nc1ccccc1[C@H]1OC(c2ccc(OCCCO)cc2)=N[C@@]1(Cc1ccccc1)C(=O)NCc1ccccc1 ?
Result string: 1.57

---

assay info: S. pombe growth modifiers, basal conditions – strain 972, OD600, 24 h, no modulator, primary screen (AID 1090);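 also: basal condition with compound alone and no growth modifier present; test concentration not given here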
protocol conditions: S. pombe 972 growth, higher = more signal, called active from +8 up or from −8 down
reported metric: z-score
A bare number is all that is needed in reply.

Worked examples, 6 compounds total:
CCCNC(=O)[C@@]1(Sc2ccc(C)cc2)CC(=O)N(Cc2ccccc2)[C@@H]1c1ccc(CO)cc1I = -1.46
COc1ccc([Si](C)(C)[C@H]2[C@H](CC(=O)N3CCC[C@H]3CO)O[C@@]3(C(=O)N(Cc4ccc(N5C(=O)c6cccc7cccc5c67)cc4)c4ccccc43)[C@@H]2C)cc1 = 0.363
COC(=O)C(CC#Cc1ccc2c(c1)[C@]1(C(=O)N2)[C@H](C(=O)N2CCc3cc(OC)c(OC)cc3C2)[C@H]2C(=O)O[C@H](c3ccccc3)[C@H](c3ccccc3)N2[C@@H]1c1ccc(OCCO)cc1)C(=O)OC = 1.63
Cc1cc(C)c(C(O)C2C=CC3C(=O)N(c4ccccc4)C(=O)C3N2Nc2ccc([N+](=O)[O-])cc2)c(C)c1 (configuration not stated) = 0.957
[N-]=[N+]=Nc1ccccc1[C@H]1OC(c2ccc(OCCCO)cc2)=N[C@@]1(Cc1ccccc1)C(=O)NCc1ccccc1 = -2.1
C[C@@]1([C@@H](NC(=O)c2cccs2)c2ccc(-c3ccccc3)cc2)C[C@H]1C1CCCCC1 = -0.584

Here is the next item to consider.
Query string: Fill in: z-score of CN(C)C(=O)[C@]1(Cc2ccccc2N=[N+]=[N-])N=C(c2ccc(OCCCO)cc2)O[C@@H]1c1ccccc1CN=[N+]=[N-] is ___
Result string: -0.393

---

assay info: change in splice reporter luminescence, either direction, cell-based, HEK293, spliceosome inhibition project, primary screen (AID 1101);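 also: HEK293 cells carrying a splicing-competent luciferase reporter gene; test concentration not given here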
protocol conditions: HEK293 splicing luciferase reporter, 24 h, higher = more signal, called active from +8 up or from −8 down
reported metric: z-score
Simply state the number, no unit and no words.

C[N+](C)(C)CCCC[C@@H]1NC(=O)[C@@H]2C[C@H](C(=O)NCCCCCNC(=O)CS)[C@H](c3cccc(OCCO)c3)N2C1=O = 0.241
[N-]=[N+]=Nc1ccccc1C[C@]1(C(=O)NCCN2CCOCC2)N=C(c2ccc(OCCCO)cc2)O[C@H]1c1ccccc1N=[N+]=[N-] = -1.41
C[N+](C)(C)CCCCCCNC(=O)[C@H]1C[C@H]2C(=O)N3CCC[C@H]3C(=O)N2[C@H]1c1cccc(OCCO)c1 = 0.592
O=C1NC(=O)C2C1C=CC(C(O)c1ccc3c(c1)OCO3)N2Nc1ccc(Cl)cc1Cl (stereo unspecified) = 0.889
Cc1ccc(S[C@]2(C(=O)NCC(C)C)CC(=O)N(C3CCCCC3)[C@@H]2c2ccc(CO)cc2I)cc1 = -1.4

As a next step, examine the molecule that follows.
Query string: Using the record for COCCCNC(=O)[C@]1(CCS(=O)(=O)c2ccccc2)N=C(c2ccc(OCCCO)cc2)O[C@@H]1c1ccccc1 , report its z-score.
Result string: -0.594
